study_system: Hepatocyte nuclear factor 6 (Homo sapiens) (UniProt Q9UBC0)
Sequence (Q9UBC0 whole entry, looked up): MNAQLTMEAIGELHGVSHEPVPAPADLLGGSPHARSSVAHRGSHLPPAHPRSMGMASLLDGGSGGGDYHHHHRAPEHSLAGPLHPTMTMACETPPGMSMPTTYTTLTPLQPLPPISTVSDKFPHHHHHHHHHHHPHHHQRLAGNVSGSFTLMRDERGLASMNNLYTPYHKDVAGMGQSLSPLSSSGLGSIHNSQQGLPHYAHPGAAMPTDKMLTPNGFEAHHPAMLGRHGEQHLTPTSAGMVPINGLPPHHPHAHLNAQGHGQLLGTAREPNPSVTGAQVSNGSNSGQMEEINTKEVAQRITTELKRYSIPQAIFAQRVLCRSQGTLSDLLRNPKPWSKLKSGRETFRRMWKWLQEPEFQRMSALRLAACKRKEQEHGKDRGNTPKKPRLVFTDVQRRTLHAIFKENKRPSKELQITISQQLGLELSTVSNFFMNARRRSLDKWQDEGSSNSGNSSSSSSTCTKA
measurement_notes: ATG_HNF6_CIS: Attagene CIS-FACTORIAL HepG2 Assay for human Hepatocyte Nuclear Factor 6 (HNF6) (AID 2282952)
study_conditions: HepG2 Attagene cis-factorial HNF6 reporter transcription; actives raise or lower the signal
Calls of active or inactive are those of the source. The calls were made as follows: active = hit-call score of the fitted dose curve at least 0.9, where 1 is the maximum; inactive = score below 0.9.
Possible outcomes: y = active, n = inactive

compound	study_system	assigned_class
CCCC(=O)c1cc(O)c(O)cc1O	Hepatocyte nuclear factor 6 (Homo sapiens) (UniProt Q9UBC0)	n
CCCCCCCCCOC(C)=O	Hepatocyte nuclear factor 6 (Homo sapiens) (UniProt Q9UBC0)	n
CCCCCNCCCCC	Hepatocyte nuclear factor 6 (Homo sapiens) (UniProt Q9UBC0)	n
Cc1cccc(Nc2ccccc2C(=O)O)c1C	Hepatocyte nuclear factor 6 (Homo sapiens) (UniProt Q9UBC0)	n
C=CC(C)(C)O	Hepatocyte nuclear factor 6 (Homo sapiens) (UniProt Q9UBC0)	n
c1ccc(CCCc2ccccn2)cc1	Hepatocyte nuclear factor 6 (Homo sapiens) (UniProt Q9UBC0)	n
O=C(O)CCCCCCCCCCC(=O)O	Hepatocyte nuclear factor 6 (Homo sapiens) (UniProt Q9UBC0)	n
C=C(C)C1CCC(C)CC1O (stereo not given)	Hepatocyte nuclear factor 6 (Homo sapiens) (UniProt Q9UBC0)	n
CC(=O)Nc1ccccc1O	Hepatocyte nuclear factor 6 (Homo sapiens) (UniProt Q9UBC0)	n
CC1CC(OC(=O)c2ccccc2O)CC(C)(C)C1 (stereo not given)	Hepatocyte nuclear factor 6 (Homo sapiens) (UniProt Q9UBC0)	n
CC(=O)C(=O)O	Hepatocyte nuclear factor 6 (Homo sapiens) (UniProt Q9UBC0)	n
CCCc1ccccc1O	Hepatocyte nuclear factor 6 (Homo sapiens) (UniProt Q9UBC0)	n
NNc1nc(-c2ccc(N)cc2)cs1	Hepatocyte nuclear factor 6 (Homo sapiens) (UniProt Q9UBC0)	n
Cc1ccc(C(=O)c2cc(O)c(O)c([N+](=O)[O-])c2)cc1	Hepatocyte nuclear factor 6 (Homo sapiens) (UniProt Q9UBC0)	n
c1cc(C(c2ccc(OCC3CO3)cc2)c2ccc(OCC3CO3)cc2)ccc1OCC1CO1 (stereo not given)	Hepatocyte nuclear factor 6 (Homo sapiens) (UniProt Q9UBC0)	y

---

measurement_notes: ATG_TGFb_CIS: Attagene CIS-FACTORIAL HepG2 Assay for human Transforming Growth Factor (TGF) (AID 2282967)
study_conditions: HepG2 Attagene CIS TGFb reporter, mRNA transcription; actives raise or lower the signal
Method: ATG_CIS is a cell-based, multiplexed-readout assay that uses HepG2, a human liver cell line, with measurements taken at 24 hours after chemical dosing in a 24-well plate.ATG_TGFb_CIS is one of 52 assay component(s) measured or calculated from the ATG_CIS assay. […] This assay endpoint, ATG_TGFb_CIS, was analyzed with bidirectional fitting relative to DMSO as the negative control and baseline of activity. […]
Calls of active or inactive are those of the source. The calls were made as follows: active = hit-call score of the fitted dose curve at least 0.9, where 1 is the maximum; inactive = score below 0.9.
Possible outcomes: active, inactive

compound	assigned_class
CO[Si](C)(OC)c1ccccc1	inactive
CCC/C=C/C=O	inactive
O=C1O[C@@H]2[C@@H](O)[C@H](O)O[C@@H]2[C@H]1O	inactive
Cc1ccc(C=O)s1	inactive
C=C(C)C1CCC(C)CC1O (configuration not stated)	inactive
CCCCCCCCCCCCN	inactive
CC(=O)Nc1ccc(CC(=O)O)cc1	inactive
CC(CN1c2ccccc2Sc2ccccc21)N(C)C (configuration not stated)	inactive
CC(=O)/C=C/C1=C(C)CCCC1(C)C	inactive
C=CC(C)(C)O	inactive
O=C(O)CCCCC1CCSS1 (configuration not stated)	inactive
CC[C@]12CCCN3CCc4c(n(c5ccccc45)[C@@](O)(C(=O)OC)C1)[C@@H]32	inactive
O=[N+]([O-])c1cc(C(F)(F)F)ccc1Cl	inactive
CCOc1ccccc1OCC	inactive
CC(C)c1ccc(C(C)C)cc1	active
COC(C(=O)O)c1ccccc1 (configuration not stated)	inactive
C#C[C@]1(O)CC[C@H]2[C@@H]3CCC4=Cc5oncc5C[C@]4(C)[C@H]3CC[C@@]21C	inactive
CCCCCCCCCCN	inactive
COC(=O)Cc1cccc2ccccc12	inactive
CCN(CC)c1ccc(C(=C2C=CC(=[N+](CC)CC)C=C2)c2ccc(S(=O)(=O)O)cc2S(=O)(=O)[O-])cc1	inactive
Cc1ccc(S)cc1	inactive
OC1OC[C@@H](O)[C@H](O)[C@H]1O (some centres not stated)	inactive
O=C1NC(=O)c2ccccc21	inactive
CCCCCCCCC	inactive
CCN(CC)c1ccc2c(-c3ccccc3C(=O)O)c3ccc(=[N+](CC)CC)cc-3oc2c1	inactive
CCn1c2ccccc2c2cc(N)ccc21	inactive
FC1(F)C(F)(F)C(F)(F)C2(F)C(F)(C1(F)F)C(F)(F)C(F)(F)C1(F)C(F)(F)C(F)(F)C(F)(F)C(F)(F)C12F (configuration not stated)	inactive
Nc1nc2ccc([N+](=O)[O-])cc2s1	inactive
CCCc1c(OCCCOc2ccc(OCC(=O)O)cc2)ccc(C(C)=O)c1O	active
Cc1ccc2ccccc2n1	inactive
CCCCCCCCCCCCCCCCCC(=O)OCC(CC)CCCC (configuration not stated)	inactive
C=CC(=O)OCCOCCOCC	inactive
CC(C)(C)NC(N)=O	inactive
O=S(=O)(O)c1ccc(O)c2ncccc12	inactive
OCCN1CCNCC1	inactive
NC(=O)NC1NC(=O)NC1=O (configuration not stated)	inactive
O=C(O)c1cn(C2CC2)c2cc(N3CCNCC3)c(F)cc2c1=O	inactive
CC(=O)[C@H]1CC[C@H]2[C@@H]3CC=C4C[C@@H](O)CC[C@]4(C)[C@H]3CC[C@]12C	inactive
CCCCCCCCCCC(CO)CCCCCCCC (configuration not stated)	inactive
Nc1ccc(F)c([N+](=O)[O-])c1	inactive
S=C(S)NCCNC(=S)S	inactive
CCCCCNCCCCC	inactive
CC(O)C(C)O (configuration not stated)	inactive
CCC(=O)/C=C/C1C(C)=CCCC1(C)C (configuration not stated)	inactive
Cc1ccc(C(=O)O)o1	inactive
COC(=O)C1=C(C)NC(C)=C(C(=O)OCCN(C)Cc2ccccc2)C1c1cccc([N+](=O)[O-])c1 (configuration not stated)	active
C=C(C)C(=O)OCCOC(=O)CC(C)=O	inactive
OCC(CO)(CO)COCC(CO)(CO)CO	inactive
CC(C)[C@@H]1CC[C@@H](C)CC1=O	inactive
COc1cc2ncnc(Nc3cccc(Cl)c3)c2cc1OC	inactive
CCCCC/C=C/C=C/C=O	inactive
O=c1oc(=O)c2cc3c(=O)oc(=O)c3cc12	inactive

---

measurement_notes: ATG_FoxO_CIS: Attagene CIS-FACTORIAL HepG2 Assay for human Forkhead box O (FoxO) (AID 2282943)
study_conditions: HepG2 Attagene cis-reporter, FoxO element, mRNA; actives raise or lower the signal
Calls of active or inactive are those of the source. Rule for the calls: active = hit-call score of the fitted dose curve at least 0.9, where 1 is the maximum; inactive = score below 0.9.

given_smiles	AC50
O=c1[nH]c(=O)n([C@H]2CCCO2)cc1F	inactive
N#Cc1nc(Cl)c(Cl)c(Cl)c1Cl	5.92 µM (active)
CCCCO	inactive

---

measurement_notes: ATG_Ets_CIS: Attagene CIS-FACTORIAL HepG2 Assay for human Erythroblast Transformation Specific (ETS) (AID 2282941)
study_conditions: HepG2 ETS cis-reporter transcription, actives raise or lower the signal
The source made the active and inactive calls. Rule for the calls: active = hit-call score of the fitted dose curve at least 0.9, where 1 is the maximum; inactive = score below 0.9.

compound	outcome
CC(=O)[O][Al][O]C(C)=O	inactive
O=S(=O)(O)c1cccc2c(S(=O)(=O)O)cccc12	inactive
O=C(O)c1cn(C2CC2)c2cc(N3CCNCC3)c(F)cc2c1=O	inactive
CCC(C(=O)NC(N)=O)c1ccccc1 (centres undefined)	inactive
CC[C@]12CCCN3CCc4c(n(c5ccccc45)[C@@](O)(C(=O)OC)C1)[C@@H]32	inactive
O=C1CCc2ccccc2O1	inactive
C=C(C)C(=O)O[C@H]1C[C@@H]2CC[C@@]1(C)C2(C)C	inactive
CCCCC(CC)COCCC#N (centres undefined)	inactive
C[Si](O[Si](C)(C)C)O[Si](C)(C)C	inactive
C=C[C@@H](C)CCC=C(C)C	inactive
c1ccc(CCCc2ccccn2)cc1	inactive
CC1CCC(C(C)(C)O)CC1 (centres undefined)	inactive
CCCCN	inactive
CCCCNC(=O)NS(=O)(=O)c1ccc(N)cc1	inactive

---

study_system: Paired box protein Pax-6 (Homo sapiens) (UniProt P26367)
Sequence (P26367 whole entry, looked up): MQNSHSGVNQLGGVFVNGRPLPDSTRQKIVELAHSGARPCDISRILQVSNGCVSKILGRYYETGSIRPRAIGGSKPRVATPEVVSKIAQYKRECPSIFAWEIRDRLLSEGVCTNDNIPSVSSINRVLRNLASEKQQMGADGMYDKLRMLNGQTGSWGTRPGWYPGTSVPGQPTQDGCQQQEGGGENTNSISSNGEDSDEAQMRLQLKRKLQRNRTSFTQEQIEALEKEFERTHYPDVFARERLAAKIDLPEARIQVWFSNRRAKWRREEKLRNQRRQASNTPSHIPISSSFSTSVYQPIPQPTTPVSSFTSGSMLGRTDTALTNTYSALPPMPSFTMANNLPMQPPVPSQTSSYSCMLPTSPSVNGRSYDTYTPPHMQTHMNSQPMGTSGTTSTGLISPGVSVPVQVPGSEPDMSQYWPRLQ
measurement_notes: ATG_Pax6_CIS: Attagene CIS-FACTORIAL HepG2 Assay for human Paired Box 6 (PAX6) (AID 2282956)
study_conditions: HepG2 CIS-FACTORIAL PAX6 reporter transcription, RNA readout; actives raise or lower the signal
Activity calls are given as the source filed them. The calls were made as follows: active = hit-call score of the fitted dose curve at least 0.9, where 1 is the maximum; inactive = score below 0.9.
Possible outcomes: true for active, false for inactive

compound	assigned_class
O=[N+]([O-])c1ccc(C=Cc2ccc([N+](=O)[O-])cc2S(=O)(=O)O)c(S(=O)(=O)O)c1	false
CCC/C=C/C=O	false
Cc1ncc([N+](=O)[O-])n1C	false
O=c1oc(=O)c2cc3c(=O)oc(=O)c3cc12	false
CC(C)C(C)(C)C(C)(C)C(C)(C)S	false
CC(=O)C=CC1=C(C)CCCC1(C)C	false
CC1(C)CCC(C)(C)c2cc(C(=O)Nc3ccc(C(=O)O)cc3)ccc21	true
O=C1CCc2ccccc2O1	false
C=CCOC(=O)CCC1CCCCC1	false
NC(=O)Nc1ccc(Cl)cc1	false
CC(C)(COC(=O)c1ccccc1)COC(=O)c1ccccc1	false
CC(C)C[C@H]1C(=O)N2CCC[C@H]2[C@]2(O)O[C@](NC(=O)[C@@H]3C=C4c5cccc6[nH]c(Br)c(c56)C[C@H]4N(C)C3)(C(C)C)C(=O)N12	true
O=C(Oc1ccccc1)c1ccc(O)cc1	false
CC(C)[C@@H]1CC[C@@H](C)CC1=O	false
CCOC(=O)c1ccccc1OC	false
CCCC[n+]1ccccc1	false
O=C(COc1ccc(Cl)cc1)N1CCN(Cc2ccc3c(c2)OCO3)CC1	true
CCCCOCCOCCOCCOCCO	false
CC1(C)[C@H](C(=O)OCc2cccc(Oc3ccccc3)c2)[C@@H]1C=C(Cl)Cl	false
CCCCCC=CCC(=O)OC	false
CC(=O)/C=C/C1=C(C)CCCC1(C)C	false
O=C(Cl)c1cccc(C(=O)Cl)c1	false
Cc1ccc(O)c(C(C)(C)C)c1	true
CNCCO	false
CO[Si](C)(OC)c1ccccc1	false
NCCCCCCN	false
COCCOCCOCCOCCOCCO	false
C=CC(C)(CCC=C(C)C)OC=O (stereo not drawn)	false
CC1=CCC(O)(C(C)C)CC1 (stereo not drawn)	false
Nc1ccc(S(N)(=O)=O)cc1	false
C=CC(=O)NCOCC(C)C	false
ClCCCl	false
CC(CN1c2ccccc2Sc2ccccc21)N(C)C (stereo not drawn)	true
O=C1CCCCCCCCCCOCCCCO1	false
O=P(c1ccccc1)(c1ccccc1)c1ccccc1	false
CCCc1ccccc1O	false
NCCCN1CCOCC1	false
O=C(O)Cc1cccc2ccccc12	false
CCOC(=S)SSC(=S)OCC	false
CC(C)=CCC/C(C)=C/COC=O	false
CC1CC(OC(=O)c2ccccc2O)CC(C)(C)C1 (stereo not drawn)	false
CC1CCC(C(C)CS)CC1S (stereo not drawn)	false
CCCCCCCCCCCCN(CCCCCCCCCCCC)CCCCCCCCCCCC	false
CC1=CCC2C(C1)C2(C)C (stereo not drawn)	false
CC(C)CCCCCCCOC(=O)c1ccc(C(=O)OCCCCCCCC(C)C)c(C(=O)OCCCCCCCC(C)C)c1	false
CN1Cc2c(N)cccc2C(c2ccccc2)C1 (stereo not drawn)	false
CCCCO	false
CCCCCCCCCCCCCCCC(=O)OC[C@H](O)[C@H]1OC(=O)C(O)=C1O	false
COc1cc2ncnc(Nc3cccc(Cl)c3)c2cc1OC	true
CC(C)(Oc1ccc(CCNC(=O)c2ccc(Cl)cc2)cc1)C(=O)O	false
O=C(O)COCCN1CCN(C(c2ccccc2)c2ccc(Cl)cc2)CC1 (stereo not drawn)	false
O=C1C(c2[nH]c3ccc(S(=O)(=O)O)cc3c2O)=Nc2ccc(S(=O)(=O)O)cc21	false
CCCCCC(CO)CCC (stereo not drawn)	false
CCCC(C)C=O (stereo not drawn)	false
COc1c(Cl)c(Cl)c(Cl)c(Cl)c1Cl	false
C=CC(C)(C)O	false
CCn1c2ccccc2c2cc(N)ccc21	false
CCCCC(CC)COCCC#N (stereo not drawn)	false
